test-target: human SMG-1 (hSMG-1) (Homo sapiens)
Sequence (Q96Q15 whole entry): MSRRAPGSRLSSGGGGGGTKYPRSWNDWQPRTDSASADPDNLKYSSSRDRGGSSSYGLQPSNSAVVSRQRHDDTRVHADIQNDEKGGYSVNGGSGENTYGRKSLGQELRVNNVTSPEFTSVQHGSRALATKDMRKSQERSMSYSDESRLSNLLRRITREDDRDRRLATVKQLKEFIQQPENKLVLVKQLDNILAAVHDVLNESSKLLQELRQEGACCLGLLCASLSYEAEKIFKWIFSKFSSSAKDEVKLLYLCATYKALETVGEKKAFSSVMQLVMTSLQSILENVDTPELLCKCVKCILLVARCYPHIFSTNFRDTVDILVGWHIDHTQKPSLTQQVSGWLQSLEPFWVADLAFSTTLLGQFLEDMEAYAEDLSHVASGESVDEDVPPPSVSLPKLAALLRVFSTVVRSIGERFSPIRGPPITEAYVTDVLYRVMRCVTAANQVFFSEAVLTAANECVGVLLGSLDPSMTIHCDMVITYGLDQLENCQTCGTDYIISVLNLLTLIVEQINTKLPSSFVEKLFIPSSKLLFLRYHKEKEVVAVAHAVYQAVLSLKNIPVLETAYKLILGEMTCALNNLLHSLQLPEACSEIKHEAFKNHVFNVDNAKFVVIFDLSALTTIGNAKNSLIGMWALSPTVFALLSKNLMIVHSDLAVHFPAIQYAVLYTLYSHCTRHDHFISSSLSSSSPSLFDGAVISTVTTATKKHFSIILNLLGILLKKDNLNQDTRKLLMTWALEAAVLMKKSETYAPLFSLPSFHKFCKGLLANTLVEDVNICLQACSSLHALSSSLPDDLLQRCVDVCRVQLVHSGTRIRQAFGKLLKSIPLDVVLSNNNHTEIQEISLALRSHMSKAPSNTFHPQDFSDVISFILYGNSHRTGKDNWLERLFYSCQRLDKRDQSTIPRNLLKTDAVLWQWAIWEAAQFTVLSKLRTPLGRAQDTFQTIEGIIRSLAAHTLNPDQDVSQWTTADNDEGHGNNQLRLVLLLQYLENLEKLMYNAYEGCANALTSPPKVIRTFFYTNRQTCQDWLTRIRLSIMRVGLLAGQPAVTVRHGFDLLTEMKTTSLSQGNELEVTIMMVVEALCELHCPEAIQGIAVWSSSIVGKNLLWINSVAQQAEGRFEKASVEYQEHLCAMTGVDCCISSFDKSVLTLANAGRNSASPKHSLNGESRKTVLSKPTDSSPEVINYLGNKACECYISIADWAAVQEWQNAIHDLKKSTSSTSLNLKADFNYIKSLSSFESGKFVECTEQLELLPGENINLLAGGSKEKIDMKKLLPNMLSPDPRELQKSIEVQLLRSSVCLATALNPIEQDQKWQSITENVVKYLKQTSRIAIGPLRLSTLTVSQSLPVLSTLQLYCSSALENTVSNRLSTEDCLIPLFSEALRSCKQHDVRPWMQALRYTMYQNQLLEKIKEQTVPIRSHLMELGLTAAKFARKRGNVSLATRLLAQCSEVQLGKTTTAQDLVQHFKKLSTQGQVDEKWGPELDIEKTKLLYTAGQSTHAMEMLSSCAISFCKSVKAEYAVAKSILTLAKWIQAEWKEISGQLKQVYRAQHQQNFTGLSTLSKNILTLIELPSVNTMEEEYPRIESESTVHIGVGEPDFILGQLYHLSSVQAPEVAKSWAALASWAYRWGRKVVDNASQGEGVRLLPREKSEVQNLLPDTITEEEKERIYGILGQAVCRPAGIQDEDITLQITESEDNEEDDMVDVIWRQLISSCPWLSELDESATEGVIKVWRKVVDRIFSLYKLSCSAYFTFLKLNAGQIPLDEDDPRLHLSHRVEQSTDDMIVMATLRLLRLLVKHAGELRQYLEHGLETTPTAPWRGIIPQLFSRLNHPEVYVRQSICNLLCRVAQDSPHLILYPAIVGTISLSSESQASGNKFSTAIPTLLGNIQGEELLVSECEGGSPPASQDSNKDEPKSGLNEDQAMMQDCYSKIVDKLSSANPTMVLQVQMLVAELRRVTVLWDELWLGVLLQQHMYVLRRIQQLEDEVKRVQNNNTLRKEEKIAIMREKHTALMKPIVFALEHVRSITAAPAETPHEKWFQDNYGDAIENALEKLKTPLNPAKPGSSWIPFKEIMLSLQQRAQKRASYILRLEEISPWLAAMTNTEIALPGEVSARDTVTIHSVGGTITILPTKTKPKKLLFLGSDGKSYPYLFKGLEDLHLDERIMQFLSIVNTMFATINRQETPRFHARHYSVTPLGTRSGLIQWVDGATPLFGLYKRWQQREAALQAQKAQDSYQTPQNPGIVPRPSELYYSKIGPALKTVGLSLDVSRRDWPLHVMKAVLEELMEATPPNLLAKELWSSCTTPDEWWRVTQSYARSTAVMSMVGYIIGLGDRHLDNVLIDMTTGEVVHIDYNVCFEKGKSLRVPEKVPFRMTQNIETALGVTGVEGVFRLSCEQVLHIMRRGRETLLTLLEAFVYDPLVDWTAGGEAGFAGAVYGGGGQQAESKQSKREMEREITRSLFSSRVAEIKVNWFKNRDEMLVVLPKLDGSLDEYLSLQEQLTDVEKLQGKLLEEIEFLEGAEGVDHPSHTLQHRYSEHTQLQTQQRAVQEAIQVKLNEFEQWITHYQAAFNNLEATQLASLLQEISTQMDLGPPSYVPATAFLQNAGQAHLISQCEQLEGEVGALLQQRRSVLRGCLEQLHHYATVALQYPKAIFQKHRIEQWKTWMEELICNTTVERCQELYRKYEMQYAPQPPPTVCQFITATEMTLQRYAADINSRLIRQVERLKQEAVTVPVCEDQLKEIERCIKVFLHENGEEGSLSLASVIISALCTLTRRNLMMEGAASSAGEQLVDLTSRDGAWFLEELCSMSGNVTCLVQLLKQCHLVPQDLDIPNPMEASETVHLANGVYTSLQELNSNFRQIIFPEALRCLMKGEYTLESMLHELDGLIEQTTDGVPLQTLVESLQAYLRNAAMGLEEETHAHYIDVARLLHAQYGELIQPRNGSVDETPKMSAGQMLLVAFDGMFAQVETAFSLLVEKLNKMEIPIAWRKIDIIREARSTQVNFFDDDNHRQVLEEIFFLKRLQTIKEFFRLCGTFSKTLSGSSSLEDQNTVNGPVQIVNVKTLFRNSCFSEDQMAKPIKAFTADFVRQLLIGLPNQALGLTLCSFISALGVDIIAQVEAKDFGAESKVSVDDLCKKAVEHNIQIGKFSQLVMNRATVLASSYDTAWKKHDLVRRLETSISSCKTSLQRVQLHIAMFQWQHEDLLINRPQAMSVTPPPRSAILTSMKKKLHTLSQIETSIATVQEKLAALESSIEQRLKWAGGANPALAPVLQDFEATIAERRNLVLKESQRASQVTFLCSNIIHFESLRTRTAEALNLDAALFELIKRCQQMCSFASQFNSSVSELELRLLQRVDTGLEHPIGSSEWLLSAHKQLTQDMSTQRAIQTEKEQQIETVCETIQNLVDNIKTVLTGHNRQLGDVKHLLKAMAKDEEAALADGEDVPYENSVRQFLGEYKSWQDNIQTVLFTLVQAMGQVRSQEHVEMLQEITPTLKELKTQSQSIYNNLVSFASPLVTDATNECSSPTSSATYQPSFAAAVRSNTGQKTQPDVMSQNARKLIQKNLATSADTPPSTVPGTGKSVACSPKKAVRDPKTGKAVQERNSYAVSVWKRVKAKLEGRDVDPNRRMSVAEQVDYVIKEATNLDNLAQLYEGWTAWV
measurement-notes: hSMG-1 kinase assay (DELFIA)
property-measured: pIC50
pIC50 here is simply -log10 of the concentration when that concentration is written in mol/L.

What does the data say about its pIC50? Entry: `CNC(=O)Nc1ccc(-c2nc(-c3ccc(NC(=O)Nc4ccc(C(N)=O)cc4)cc3)nc(N3CCOCC3)n2)cc1`
9.00

----------
Test system: human breast MDA-MB-361 tumor cell line
measurement-notes: In vitro cell culture growth assay (MTS), MDA-MB-361
Format: cell-based
condition-set: 72 h, human breast MDA-MB-361 cells, three days after drug treatment
property-measured: IC50 (nM)
Numeric answer only, unit nM assumed.

Reported IC50 for `CN(C)CCNC(=O)c1ccc(NC(=O)Nc2ccc(-c3nc(N4CCCCC4)nc(N4CCOCC4)n3)cc2)cc1` : what is it?
22

----------
Exercise: state measured IC50 for each of the compounds provided.
test-target: PI3K-alpha (Homo sapiens, UniProt P42336)
Write the number in nM without appending the unit.

Data request, read-out IC50, for `C[C@H]1COCCN1c1nc(-c2ccc(NC(=O)Nc3ccc(C(=O)N4CCC(C#N)CC4)cc3)cc2)nc(N2CCOC[C@@H]2C)n1`
5.15

Which IC50 is reported for this compound? `C[C@H]1CN(C(=O)c2ccc(NC(=O)Nc3ccc(-c4nc(C5CCOCC5)nc(N5CCOCC5)n4)cc3)cc2)CCN1`
0.4

Item under review: `CCN(CC)CCOC(=O)c1ccc(NC(=O)Nc2ccc(-c3nc(N4CCOCC4)nc(N4C5CCC4COC5)n3)cc2)cc1` . Reported IC50?
21

Which IC50 is listed for `C[C@@H]1CN(C(=O)c2ccc(NC(=O)Nc3ccc(-c4nc(N5CCOCC5)nc(N5CCOCC5)n4)cc3)cc2)CCN1C1CCC1` ?
0.85

Data request, read-out IC50, for `C[C@H]1CN(C(=O)c2ccc(NC(=O)Nc3ccc(-c4nc(N5CCOCC5)nc(N5CCOCC5)n4)cc3)cc2)CCN1C1CCC1`
2.1

----------
test-target: PI3K-alpha (Homo sapiens)
measurement-notes: PI3K-alpha fluorescence polarization assay
condition-set: read-out: IC50 PI3Kα
property-measured: IC50 (nM)
// note: answer is a bare numeric in nM

What does the record list as IC50 for CC(C)N1CCCN(c2nc(-c3ccc(NC(=O)Nc4ccc(C(=O)N5CC[C@H](N(C)C)C5)cc4)cc3)nc(N3CCOC[C@@H]3C)n2)CC1 [Example 856] ?
28.5

Query (molecule): C[C@H]1COCCN1c1nc(-c2ccc(NC(=O)Nc3ccc(C(=O)N4C5CCC4COC5)cc3)cc2)nc(N2CCOC[C@@H]2C)n1 [Example 839] ; field requested: IC50
6.65

What value of measured IC50 is listed for CC(C)N1CCCN(c2nc(-c3ccc(NC(=O)Nc4ccc(C(=O)N5CCNCC5)cc4)cc3)nc(N3CCOCC3)n2)CC1 [Example 846] ?
3.5

----------
test-target: PI3K-alpha (Homo sapiens, UniProt P42336)
Define the label as Criterion met when IC50 is strictly less than 1 nM and as Criterion not met in all remaining cases.

Strictly below 1 nM in IC50? `CN(C)CCN(C)C(=O)c1ccc(NC(=O)Nc2ccc(-c3nc(C4CCOCC4)nc(N4CCOCC4)n3)cc2)cc1`
Criterion met

Dear reviewer, please state whether `CC(C)N1CCCN(c2nc(-c3ccc(NC(=O)Nc4ccc(C(=O)N5CC[C@H](N(C)C)C5)cc4)cc3)nc(N3CCOCC3)n2)CC1` has IC50 strictly beneath 1 nM.
Criterion not met

Determine if `CC(C)N1CCCN(c2nc(-c3ccc(NC(=O)Nc4ccc(C(=O)N(C)CCN(C)C)cc4)cc3)nc(N3CCOC[C@@H]3C)n2)CC1` shows IC50 strictly lower than 1 nM.
Criterion not met

Below 1 nM on IC50? Entry `CC(=O)NC1CCN(C(=O)c2ccc(NC(=O)Nc3ccc(-c4nc(N5CCOC[C@@H]5C)nc(N5CCOC[C@@H]5C)n4)cc3)cc2)CC1`
Criterion not met

Quick check: IC50 of `CC(C)NC(=O)N1CC(Oc2nc(-c3ccc(NC(=O)Nc4ccncc4)cc3)nc(N3CCOCC3)n2)C1` under 1 nM?
Criterion not met

Please determine if CC1CNCCN1C(=O)c1ccc(NC(=O)Nc2ccc(-c3nc(N4CCOCC4)nc(N4CCOCC4)n3)cc2)cc1 (stereo not shown) is below 1 nM in terms of IC50.
Criterion met

----------
test-target: PI3K-gamma (Homo sapiens)
Sequence (P48736 whole entry, species assumed): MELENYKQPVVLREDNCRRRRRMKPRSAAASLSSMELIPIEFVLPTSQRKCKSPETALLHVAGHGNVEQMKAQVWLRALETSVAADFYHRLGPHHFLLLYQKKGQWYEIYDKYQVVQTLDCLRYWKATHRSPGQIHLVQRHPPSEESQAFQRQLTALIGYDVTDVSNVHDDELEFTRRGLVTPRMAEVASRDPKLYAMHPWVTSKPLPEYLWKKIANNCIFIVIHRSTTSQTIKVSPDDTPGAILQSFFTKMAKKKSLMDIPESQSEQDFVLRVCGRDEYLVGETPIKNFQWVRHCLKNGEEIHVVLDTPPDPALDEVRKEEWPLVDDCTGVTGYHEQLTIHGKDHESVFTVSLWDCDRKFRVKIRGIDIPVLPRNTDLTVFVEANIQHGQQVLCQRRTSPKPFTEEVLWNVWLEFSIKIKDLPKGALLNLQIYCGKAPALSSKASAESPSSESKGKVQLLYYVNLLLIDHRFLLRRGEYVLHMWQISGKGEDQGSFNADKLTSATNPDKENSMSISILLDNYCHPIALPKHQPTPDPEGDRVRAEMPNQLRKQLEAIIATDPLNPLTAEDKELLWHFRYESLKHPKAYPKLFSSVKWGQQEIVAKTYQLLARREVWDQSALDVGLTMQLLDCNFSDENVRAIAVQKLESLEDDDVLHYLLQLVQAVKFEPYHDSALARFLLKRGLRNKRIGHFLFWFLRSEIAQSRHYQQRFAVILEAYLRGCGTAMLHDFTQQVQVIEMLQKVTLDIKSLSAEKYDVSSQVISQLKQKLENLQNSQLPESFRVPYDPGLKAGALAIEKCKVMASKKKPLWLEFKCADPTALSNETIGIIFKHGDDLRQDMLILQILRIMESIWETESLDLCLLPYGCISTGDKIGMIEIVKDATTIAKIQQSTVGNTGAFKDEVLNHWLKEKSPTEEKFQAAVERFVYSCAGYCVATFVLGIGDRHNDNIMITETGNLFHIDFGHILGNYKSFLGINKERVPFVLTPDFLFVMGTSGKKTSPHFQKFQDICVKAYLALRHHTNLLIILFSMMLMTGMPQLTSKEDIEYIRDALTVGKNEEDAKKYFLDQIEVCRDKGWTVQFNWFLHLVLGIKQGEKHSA
measurement-notes: PI3K-gamma fluorescence polarization assay
condition-set: read-out: IC50 PI3Kγ
property-measured: pIC50
pIC50 (log units): -log10 of the concentration in mol/L.

Bench note: what pIC50 did `CC(C)N1CCCN(c2nc(-c3ccc(NC(=O)Nc4ccc(C(=O)N5CC[C@@H](N(C)C)C5)cc4)cc3)nc(N3CCOCC3)n2)CC1` show?
6.62

Quick check: pIC50 of `C[C@H]1COCCN1c1nc(-c2ccc(NC(=O)Nc3ccc(C(=O)N4CC[C@H](N(C)C)C4)cc3)cc2)nc(N2CCOC[C@@H]2C)n1` ?
6.97

pIC50 lookup needed for `C[C@H]1CN(C(=O)c2ccc(NC(=O)Nc3ccc(-c4nc(C5CCOCC5)nc(N5CCOCC5)n4)cc3)cc2)CCN1C` , thanks.
7.78

What measured pIC50 goes with `CC(C)N1CCCN(c2nc(-c3ccc(NC(=O)Nc4ccc(C(=O)N(C)CCN(C)C)cc4)cc3)nc(N3CCOCC3)n2)CC1` ?
6.87

Fill in: pIC50 of `C[C@H]1CN(C(=O)c2ccc(NC(=O)Nc3ccc(-c4nc(C5CCOCC5)nc(N5CCOCC5)n4)cc3)cc2)CCN1` is ___
8.15

----------
Measured pIC50 on PI3K-alpha (Homo sapiens, UniProt P42336) follows.
Conceptually, pIC50 converts a concentration in mol/L into minus its log10.

Find the recorded pIC50 belonging to `CN1CCN(C(=O)c2ccc(NC(=O)Nc3ccc(-c4nc(C5CCOCC5)nc(N5CCOCC5)n4)cc3)cc2)CC1` and report it.
8.67

Which pIC50 is listed for `C[C@@H]1CN(C(=O)c2ccc(NC(=O)Nc3ccc(-c4nc(N5CCOCC5)nc(N5CCOCC5)n4)cc3)cc2)CCN1C` ?
9.19

Recorded pIC50 of `CC(C)N1CCCN(c2nc(-c3ccc(NC(=O)Nc4ccc(C(=O)NCCCN(C)C)cc4)cc3)nc(N3CCOCC3)n2)CC1` , please.
8.00

// pIC50 lookup, key: `CN(C)[C@@H]1CCN(C(=O)c2ccc(NC(=O)Nc3ccc(-c4nc(N5CCOCC5)nc(N5CCOCC5)n4)cc3)cc2)C1`
9.02

Where these numbers come from: patent US8748421B2
